Reported k3 values are given for each entry in this list.
molecular target: human trypsin (Homo sapiens, UniProt P07477); assay: Determination of inhibitor constants against trypsin (progress curves, Cbz-Gly-Gly-Arg-AMC); type: biochemical; conditions: first-order rate constant; PBS pH 7.4, 37°C; ±S.E.M., three determinations
*1 amine or outer side, *2 acyl side, *3 side chain or, on linkers, in order; H or OH if unused. Where a SMILES comes first, the peptide text is derived from it. Side-chain parts run from the residue outwards. [ ]: non-standard residue; d: D form. The star is where a group is joined. Biotin = O=C1N[C@H]2[C@H](CS[C@H]2CCCCC(=O)*)N1; Gly(N-(CH2)3-guanidino) = N=C(N)NCCCNCC(=O)O; Glutaryl = O=C(CCCC(=O)[*:2])[*:1]; X4 = O=C(Oc1c(F)c(F)c(F)c(F)c1F)*; X2 = O=C1CCC(=O)N1OC(=O)*; X3 = C#Cc1cccc(N*)c1; Ahx = NCCCCCC(=O)O

query: Tell me the measured k3 of N=C(N)NCCCN(CC(=O)NCC(=O)NCC(=O)NCCCCCC(=O)N[C@@H](CCCCNC(=O)CCCC[C@@H]1SC[C@@H]2NC(=O)N[C@@H]21)C(=O)O)C(=O)Oc1c(F)c(F)c(F)c(F)c1F [NAP966] (X4-[Gly(N-(CH2)3-guanidino)]GG[Ahx]K(Biotin)-OH) , please.
result: 0.401 (±0.007) min^−1

query: Tell me the measured k3 of C#Cc1cccc(NC(=O)CCCC(=O)NCCCC[C@H](NC(=O)CCCCCNC(=O)CNC(=O)CNC(=O)CN(CCCNC(=N)N)C(=O)ON2C(=O)CCC2=O)C(=O)O)c1 [NAP884] (X2-[Gly(N-(CH2)3-guanidino)]GG[Ahx]K([Glutaryl-X3])-OH) , please.
result: 0.528 (±0.064) min^−1

----------
target: human trypsin (Homo sapiens); assay: Determination of inhibitor constants against trypsin (progress curves, Cbz-Gly-Gly-Arg-AMC); format: biochemical; settings: PBS pH 7.4, 37°C, 50 μM Cbz-Gly-Gly-Arg-AMC; ±S.E.M., three determinations; read-out: Ki
*1 amine or outer side, *2 acyl side, *3 side chain or, on linkers, in order; H or OH if unused. Where a SMILES comes first, the peptide text is derived from it. Side-chain parts run from the residue outwards. [ ]: non-standard residue; d: D form. The star is where a group is joined. Biotin = O=C1N[C@H]2[C@H](CS[C@H]2CCCCC(=O)*)N1; Gly(N-(CH2)3-guanidino) = N=C(N)NCCCNCC(=O)O; Glutaryl = O=C(CCCC(=O)[*:2])[*:1]; X2 = O=C1CCC(=O)N1OC(=O)*; X3 = C#Cc1cccc(N*)c1; Ahx = NCCCCCC(=O)O; X1 = O=C(n1cncn1)*
Reported Ki values are given for each entry in this list.
The reply should be a number in nM, with the unit left off.

Reference set, count: 3
compound: N=C(N)NCCCN(CC(=O)NCC(=O)NCC(=O)NCCCCCC(=O)N[C@@H](CCCCNC(=O)CCCC[C@@H]1SC[C@@H]2NC(=O)N[C@@H]21)C(=O)O)C(=O)ON1C(=O)CCC1=O [NAP897] (X2-[Gly(N-(CH2)3-guanidino)]GG[Ahx]K(Biotin)-OH)
unit: nM
Ki: 663
//
compound: N=C(N)NCCCN(CC(=O)NCC(=O)NCC(=O)NCCCOCCOCCOCCCNC(=O)CCCC[C@@H]1SC[C@@H]2NC(=O)N[C@@H]21)C(=O)ON1C(=O)CCC1=O
unit: nM
Ki: 226
//
compound: C#Cc1cccc(NC(=O)CCCC(=O)NCCCC[C@H](NC(=O)CCCCCNC(=O)CNC(=O)CNC(=O)CN(CCCNC(=N)N)C(=O)ON2C(=O)CCC2=O)C(=O)O)c1 [NAP884] (X2-[Gly(N-(CH2)3-guanidino)]GG[Ahx]K([Glutaryl-X3])-OH)
unit: nM
Ki: 420

Let us move to another entry and its Ki.
query: Fill in the recorded Ki for this compound, with human trypsin (Homo sapiens) as test system: N=C(N)NCCCN(CC(=O)NCC(=O)NCC(=O)NCCCCCC(=O)N[C@@H](CCCCNC(=O)CCCC[C@@H]1SC[C@@H]2NC(=O)N[C@@H]21)C(=O)O)C(=O)n1cncn1 [NAP851] (X1-[Gly(N-(CH2)3-guanidino)]GG[Ahx]K(Biotin)-OH; N-terminus assumed)
result: 7560

----------
Reported k3 values are given for each entry in this list.
molecular target: human trypsin (Homo sapiens); experiment: Determination of inhibitor constants against trypsin (progress curves, Cbz-Gly-Gly-Arg-AMC); format: biochemical; conditions: first-order rate constant; PBS pH 7.4, 37°C; ±S.E.M., three determinations
Where a SMILES comes first, the peptide text is derived from it. [ ]: non-standard residue; d: D form. The star is where a group is joined. Biotin = O=C1N[C@H]2[C@H](CS[C@H]2CCCCC(=O)*)N1; Gly(N-(CH2)3-guanidino) = N=C(N)NCCCNCC(=O)O; X2 = O=C1CCC(=O)N1OC(=O)*; Ahx = NCCCCCC(=O)O; X1 = O=C(n1cncn1)*

Reference set, count: 2
compound: N=C(N)NCCCN(CC(=O)NCC(=O)NCC(=O)NCCCOCCOCCOCCCNC(=O)CCCC[C@@H]1SC[C@@H]2NC(=O)N[C@@H]21)C(=O)ON1C(=O)CCC1=O
target under test: human trypsin (Homo sapiens)
k3: 0.473 (±0.101) min^−1
--
compound: N=C(N)NCCCN(CC(=O)NCC(=O)NCC(=O)NCCCCCC(=O)N[C@@H](CCCCNC(=O)CCCC[C@@H]1SC[C@@H]2NC(=O)N[C@@H]21)C(=O)O)C(=O)ON1C(=O)CCC1=O [NAP897] (X2-[Gly(N-(CH2)3-guanidino)]GG[Ahx]K(Biotin)-OH)
target under test: human trypsin (Homo sapiens)
k3: 0.741 (±0.225) min^−1

query: Tell me the measured k3 of N=C(N)NCCCN(CC(=O)NCC(=O)NCC(=O)NCCCCCC(=O)N[C@@H](CCCCNC(=O)CCCC[C@@H]1SC[C@@H]2NC(=O)N[C@@H]21)C(=O)O)C(=O)n1cncn1 [NAP851] (X1-[Gly(N-(CH2)3-guanidino)]GG[Ahx]K(Biotin)-OH; N-terminus assumed) , please.
result: 0.160 (±0.020) min^−1

----------
molecular target: human trypsin (Homo sapiens, UniProt P07477); assay: Determination of inhibitor constants against trypsin (progress curves, Cbz-Gly-Gly-Arg-AMC); type: biochemical; conditions: second-order rate constant; PBS pH 7.4, 37°C; ±S.E.M., three determinations
*1 amine or outer side, *2 acyl side, *3 side chain or, on linkers, in order; H or OH if unused. Where a SMILES comes first, the peptide text is derived from it. Side-chain parts run from the residue outwards. [ ]: non-standard residue; d: D form. The star is where a group is joined. Biotin = O=C1N[C@H]2[C@H](CS[C@H]2CCCCC(=O)*)N1; Gly(N-(CH2)3-guanidino) = N=C(N)NCCCNCC(=O)O; Glutaryl = O=C(CCCC(=O)[*:2])[*:1]; X4 = O=C(Oc1c(F)c(F)c(F)c(F)c1F)*; X2 = O=C1CCC(=O)N1OC(=O)*; X3 = C#Cc1cccc(N*)c1; Ahx = NCCCCCC(=O)O; X1 = O=C(n1cncn1)*
reported metric: k3/Ki

Reference set, count: 4
molecule: N=C(N)NCCCN(CC(=O)NCC(=O)NCC(=O)NCCCOCCOCCOCCCNC(=O)CCCC[C@@H]1SC[C@@H]2NC(=O)N[C@@H]21)C(=O)ON1C(=O)CCC1=O [NAP858]
k3/Ki: 2.06 (±0.884) x 10^6 M^−1 min^−1
--
molecule: C#Cc1cccc(NC(=O)CCCC(=O)NCCCC[C@H](NC(=O)CCCCCNC(=O)CNC(=O)CNC(=O)CN(CCCNC(=N)N)C(=O)ON2C(=O)CCC2=O)C(=O)O)c1 [NAP884] (X2-[Gly(N-(CH2)3-guanidino)]GG[Ahx]K([Glutaryl-X3])-OH)
k3/Ki: 1.34 (±0.351) x 10^6 M^−1 min^−1
--
molecule: N=C(N)NCCCN(CC(=O)NCC(=O)NCC(=O)NCCCCCC(=O)N[C@@H](CCCCNC(=O)CCCC[C@@H]1SC[C@@H]2NC(=O)N[C@@H]21)C(=O)O)C(=O)ON1C(=O)CCC1=O [NAP897] (X2-[Gly(N-(CH2)3-guanidino)]GG[Ahx]K(Biotin)-OH)
k3/Ki: 1.35 (±0.376) x 10^6 M^−1 min^−1
--
molecule: N=C(N)NCCCN(CC(=O)NCC(=O)NCC(=O)NCCCCCC(=O)N[C@@H](CCCCNC(=O)CCCC[C@@H]1SC[C@@H]2NC(=O)N[C@@H]21)C(=O)O)C(=O)n1cncn1 [NAP851] (X1-[Gly(N-(CH2)3-guanidino)]GG[Ahx]K(Biotin)-OH; N-terminus assumed)
k3/Ki: 2.46 (±0.858) x 10^4 M^−1 min^−1

Let us move to another entry and its k3/Ki.
query: Fill in the recorded k3/Ki for this molecule, with human trypsin (Homo sapiens, UniProt P07477) as test system: N=C(N)NCCCN(CC(=O)NCC(=O)NCC(=O)NCCCCCC(=O)N[C@@H](CCCCNC(=O)CCCC[C@@H]1SC[C@@H]2NC(=O)N[C@@H]21)C(=O)O)C(=O)Oc1c(F)c(F)c(F)c(F)c1F [NAP966] (X4-[Gly(N-(CH2)3-guanidino)]GG[Ahx]K(Biotin)-OH)
result: 1.92 (±0.250) x 10^5 M^−1 min^−1

Cited source for all entries: paper PMC9068901
